Biological target: HCV polymerase (Hepatitis C virus genotype 1b)
Construct: 2.5 pmoles (0.15 μg) HCV polymerase protein in a final volume of 75 μL
Assay: HCV polymerase primer/template-directed transcription assay (32P-GTP incorporation, filter binding)
Format: biochemical
Conditions: recombinant HCV polymerase; 30 minutes at 30° C.; concentration giving 50% inhibition of polymerase-directed transcription; read-out: IC50
Below, each entry is listed with its recorded log10 IC50.
measuredAttribute: log10 IC50 (log10 of the value in nM)

compound	log10 IC50
COc1ccc(CCC2(C3CCCC3)CC(O)=C(Sc3nnc(O)n3C(C)C)C(=O)O2)cc1Cl (stereo not shown)	2.40
Cc1cc(C)n2nc(CC3=C(O)CC(CCc4ccc(OCC5CC5)c(F)c4)(C4CCCC4)OC3=O)nc2n1 (stereo not shown)	2.13
Cc1cc(C)n2nc(CC3=C(O)CC(CCc4ccc(-c5c(C)noc5C)cc4)(C4CCCC4)OC3=O)nc2n1 (stereo not shown)	1.38
COc1cc(OC)c(CCC2(C3CCCC3)CC(O)=C(Cc3nc4cc(OC)c(OC)cc4c(=O)[nH]3)C(=O)O2)cc1Cl (stereo not shown)	1.20
O=C1CC(=O)OC(CCc2ccc(OCC(F)(F)F)c(Cl)c2)(C2CCCC2)C1 (stereo not shown)	3.71
COc1cc(OC)c(CCC2(C3CCCC3)CC(O)=C(Sc3nc4nc(C)ccn4n3)C(=O)O2)cc1Cl (stereo not shown)	1.43
O=C1CC(=O)OC(CCc2ccc(O)c(CC(F)(F)F)c2)(C2CCCC2)C1 (stereo not shown)	2.67
CCc1cc(CCC2(C3CCCC3)CC(O)=C(Cc3nc4ncc(C)cn4n3)C(=O)O2)c(OC)cc1O (racemic) [A(213)]	0.65
COc1cc(OC)c(CCC2(C3CCCC3)CC(O)=C(Sc3nc4ncccn4n3)C(=O)O2)cc1Cl (stereo not shown)	1.52
Cc1ccc(C#CCCC2(C3CCCC3)CC(=O)CC(=O)O2)cc1 (stereo not shown)	4.92
CCC(C#N)(CC)c1ccc(CCC2(C3CCCC3)CC(=O)C(Cc3nc4nc(C)cc(C)n4n3)C(=O)O2)cc1F (stereo not shown)	0.78
Cc1cnc2nc(CC3=C(O)CC(CCc4cc(F)c(C(C)(C)C#N)c(F)c4)(C4CCCC4)OC3=O)nn2c1 (stereo not shown) [A(143)]	0.95
Cc1nnc(SC2=C(O)CC(CCc3ccc(OC(C)C)c(F)c3)(C3CCCC3)OC2=O)s1 (stereo not shown)	2.51
COc1ccc(CCC2(C3CCCC3)CC(O)=C(Sc3ccc4ccccc4n3)C(=O)O2)cc1Cl (stereo not shown)	2.95
Cc1nc(CC2=C(O)CC(CCc3ccc(OC(F)F)c(Cl)c3)(C3CCCC3)OC2=O)n(C)n1 (stereo not shown)	3.53
COc1ccc(CCC2(C3CCCC3)CC(O)=C(Sc3nncn3C(C)C)C(=O)O2)cc1Cl (stereo not shown)	1.90

* * *

Below, each entry is listed with its recorded pIC50.
Molecular target: HCV polymerase (Hepatitis C virus genotype 1b, UniProt P26663)
Construct: 2.5 pmoles (0.15 μg) HCV polymerase protein in a final volume of 75 μL
Sequence (P26663 2420-3010): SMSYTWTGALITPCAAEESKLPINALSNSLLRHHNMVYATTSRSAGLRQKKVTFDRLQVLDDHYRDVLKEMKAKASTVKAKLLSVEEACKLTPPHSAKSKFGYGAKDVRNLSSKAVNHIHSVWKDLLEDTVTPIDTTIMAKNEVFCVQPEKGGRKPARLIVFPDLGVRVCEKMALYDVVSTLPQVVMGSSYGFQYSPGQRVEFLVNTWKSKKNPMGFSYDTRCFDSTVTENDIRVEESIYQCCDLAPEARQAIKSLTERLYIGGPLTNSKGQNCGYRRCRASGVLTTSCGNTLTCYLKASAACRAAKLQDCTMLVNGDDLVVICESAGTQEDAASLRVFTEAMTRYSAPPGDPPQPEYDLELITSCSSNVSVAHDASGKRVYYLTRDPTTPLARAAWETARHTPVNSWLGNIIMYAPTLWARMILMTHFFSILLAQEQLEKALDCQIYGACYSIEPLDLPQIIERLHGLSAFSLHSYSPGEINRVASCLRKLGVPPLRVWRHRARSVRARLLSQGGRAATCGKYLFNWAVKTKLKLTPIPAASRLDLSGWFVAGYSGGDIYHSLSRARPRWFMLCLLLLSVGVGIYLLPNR
Assay: HCV polymerase primer/template-directed transcription assay (32P-GTP incorporation, filter binding)
Type: biochemical
Conditions: recombinant HCV polymerase; 30 minutes at 30° C.; concentration giving 50% inhibition of polymerase-directed transcription; read-out: IC50
pIC50: −log10 of the molar value.

compound	measuredTarget	pIC50
COc1ccc(CCC2(C3CCCC3)CC(O)=C(Cc3ccc(-n4c(C)ccc4C)cc3)C(=O)O2)cc1Cl (centres unmarked)	HCV polymerase (Hepatitis C virus genotype 1b, UniProt P26663)	6.82
CCn1cnnc1SC1=C(O)CC(CCc2ccc(OC)c(Cl)c2)(C2CCCC2)OC1=O (centres unmarked)	HCV polymerase (Hepatitis C virus genotype 1b, UniProt P26663)	7.15
CCc1cc(CCC2(C3CCCC3)CC(O)=C(Cc3nc4nc(C)cc(C)n4n3)C(=O)O2)c2c(c1O)CCO2 (centres unmarked)	HCV polymerase (Hepatitis C virus genotype 1b, UniProt P26663)	8.00
Cc1cnc2nc(CC3=C(O)CC(CCc4cc(F)c(C5(C#N)CC5)c(F)c4)(C4CCCC4)OC3=O)nn2c1 (centres unmarked)	HCV polymerase (Hepatitis C virus genotype 1b, UniProt P26663)	7.92
Cc1cnc2nc(CC3C(=O)CC(CCc4ccc(C(C)(C)C#N)c(F)c4)(C4CCCC4)OC3=O)nn2c1 (single isomer, unassigned; (-)) [A(110)]	HCV polymerase (Hepatitis C virus genotype 1b, UniProt P26663)	9.00
CC1(c2ccc(CCC3(C4CCCC4)CC(=O)CC(=O)O3)cc2)CCC(=O)O1 (centres unmarked)	HCV polymerase (Hepatitis C virus genotype 1b, UniProt P26663)	5.82
CCc1cc(CCC2(C3CCCC3)CC(O)=C(Cc3nc4ncc(Cl)cn4n3)C(=O)O2)c(OC)cc1O (racemic) [A(210)]	HCV polymerase (Hepatitis C virus genotype 1b, UniProt P26663)	8.70
CCc1ccc(OCCOC)c(CCC2(C3CCCC3)CC(O)=C(Cc3nc4ncc(C)cn4n3)C(=O)O2)c1 (centres unmarked)	HCV polymerase (Hepatitis C virus genotype 1b, UniProt P26663)	8.30
O=C1OC(CCc2ccc(O)c(CC(F)(F)F)c2)(C2CCCC2)CC(O)=C1Cc1nc2ncc(Cl)cn2n1 (racemic) [A(223)]	HCV polymerase (Hepatitis C virus genotype 1b, UniProt P26663)	8.30
COc1cc(OC)c(CCC2(C3CCCC3)CC(O)=C(Sc3nc4ncc(C)cn4n3)C(=O)O2)cc1Cl (centres unmarked)	HCV polymerase (Hepatitis C virus genotype 1b, UniProt P26663)	7.55
COc1ccc(CCC2(C3CCCC3)CC(O)=C(Sc3nc4ccccc4n3-c3ccccc3)C(=O)O2)cc1Cl (centres unmarked)	HCV polymerase (Hepatitis C virus genotype 1b, UniProt P26663)	6.85
Cc1cnc2nc(CC3=C(O)CC(CCc4ccc(C(C)(C)C#N)c(Cl)c4)(C4CCCC4)OC3=O)nn2c1 (centres unmarked) [A(199)]	HCV polymerase (Hepatitis C virus genotype 1b, UniProt P26663)	8.00
O=C1CC(=O)OC(CCc2ccc(C(=O)C3CC3)cc2)(C2CCCC2)C1 (centres unmarked)	HCV polymerase (Hepatitis C virus genotype 1b, UniProt P26663)	5.28
N#CC1(c2ccc(CCC3(C4CCCC4)CC(=O)CC(=O)O3)cc2F)CC1 (centres unmarked)	HCV polymerase (Hepatitis C virus genotype 1b, UniProt P26663)	6.40
O=C1CC(=O)OC(CCCCC2CCCCC2)(C2CCCC2)C1 (centres unmarked)	HCV polymerase (Hepatitis C virus genotype 1b, UniProt P26663)	5.20
CC(C)c1ccc(CCC2(C3CCCC3)CC(=O)CC(=O)O2)cc1F (centres unmarked)	HCV polymerase (Hepatitis C virus genotype 1b, UniProt P26663)	5.40
C[C@H](O)c1ccc(CCC2(C3CCCC3)CC(=O)CC(=O)O2)cc1 (some centres unmarked)	HCV polymerase (Hepatitis C virus genotype 1b, UniProt P26663)	5.08
CC(C)(O)c1ccc(CCC2(C3CCCC3)CC(O)=C(Cc3nc4ncc(Cl)cn4n3)C(=O)O2)cc1F (centres unmarked)	HCV polymerase (Hepatitis C virus genotype 1b, UniProt P26663)	7.42
N#CC1(c2ccc(CCC3(C4CCCC4)CC(=O)C(Cc4nc5ncc(Cl)cn5n4)C(=O)O3)cc2F)CC1 (centres unmarked)	HCV polymerase (Hepatitis C virus genotype 1b, UniProt P26663)	8.30
CCc1cc(CCC2(C3CCCC3)CC(O)=C(Cc3nc4ncc(Cl)cn4n3)C(=O)O2)ccc1O (racemic) [A(271)]	HCV polymerase (Hepatitis C virus genotype 1b, UniProt P26663)	8.22
COc1ccc(CCC2(C3CCCC3)CC(O)=C(Sc3ncc4[nH]cnc4n3)C(=O)O2)cc1Cl (centres unmarked)	HCV polymerase (Hepatitis C virus genotype 1b, UniProt P26663)	7.30
COc1ccc(CCC2(C3CCCC3)CC(=O)C(Cc3cn4cccnc4n3)C(=O)O2)cc1Cl (centres unmarked)	HCV polymerase (Hepatitis C virus genotype 1b, UniProt P26663)	6.44
COc1ccc(CCC2(C3CCCC3)CC(O)=C(Cc3ncc[nH]3)C(=O)O2)cc1Cl (centres unmarked)	HCV polymerase (Hepatitis C virus genotype 1b, UniProt P26663)	5.70
Cn1ccc2cc(CC3=C(O)CC(CCc4ccc(C(C)(C)C#N)c(F)c4)(C4CCCC4)OC3=O)ccc21 (centres unmarked)	HCV polymerase (Hepatitis C virus genotype 1b, UniProt P26663)	8.10
CCc1nc(CC2=C(O)CC(CCc3cc(CC)c(O)cc3OC)(C3CCCC3)OC2=O)c(C)[nH]1 (centres unmarked)	HCV polymerase (Hepatitis C virus genotype 1b, UniProt P26663)	7.19
COc1ccc(CCC2(C3CCCC3)CC(O)=C(Sc3nc4cccnc4s3)C(=O)O2)cc1Cl (centres unmarked)	HCV polymerase (Hepatitis C virus genotype 1b, UniProt P26663)	6.62
CCc1cc(CCC2(C3CCCC3)CC(O)=C(Cc3nc4nc(C)cc(C)n4n3)C(=O)O2)ccc1OC (centres unmarked)	HCV polymerase (Hepatitis C virus genotype 1b, UniProt P26663)	8.30
CCC(=O)c1cc(OC)ccc1CCC1(C2CCCC2)CC(=O)CC(=O)O1 (centres unmarked)	HCV polymerase (Hepatitis C virus genotype 1b, UniProt P26663)	5.08
COc1ccc(CCC2(C3CCCC3)CC(O)=C(Sc3nc(-c4ccccc4)cs3)C(=O)O2)cc1Cl (centres unmarked)	HCV polymerase (Hepatitis C virus genotype 1b, UniProt P26663)	6.62
COc1cc(OC)c(CCC2(C3CCCC3)CC(O)=C(Cc3nc(C)cc(=O)[nH]3)C(=O)O2)cc1Cl (centres unmarked)	HCV polymerase (Hepatitis C virus genotype 1b, UniProt P26663)	7.00
Cc1noc(C)c1-c1ccc(CCC2(C3CCCC3)CC(=O)CC(=O)O2)cc1 (centres unmarked)	HCV polymerase (Hepatitis C virus genotype 1b, UniProt P26663)	5.51
Cn1c(CC2=C(O)CC(CCc3ccc(OCC4CC4)c(Cl)c3)(C3CCCC3)OC2=O)nc2ccccc21 (centres unmarked)	HCV polymerase (Hepatitis C virus genotype 1b, UniProt P26663)	5.64
